Just for reference, patent US20250282885A1 is where these values come from.

molecular target: T1, human Sdc2 (human, UniProt P34741 19-144, limits assumed); assay: Octet tandem binning; saturating Ab m7 19844-R3-P1-E07
T1 construct: Antigen of the Octet tandem binning, loaded on biosensors at 100 nM; also called huSdc2; hSdc2
T1 sequence (P34741 19-144 limits assumed): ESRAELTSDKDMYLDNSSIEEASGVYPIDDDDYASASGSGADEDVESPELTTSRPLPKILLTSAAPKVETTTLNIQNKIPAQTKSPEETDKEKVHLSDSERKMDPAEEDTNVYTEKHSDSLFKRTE
Mark MET only when raw competing-Ab binding signal stays strictly below 0.5. Values equal to the cut-off are NOT MET.

hey, is raw competing-Ab binding signal for R4M-P1-A10 (antibody, human IgG1, kappa, V domains shown) VH: EVQLVETGGGVVQPGRSLRLSCAASGFTFSSYAMHWVRQAPGKGLEWVAVISYDGSNKYYADSVKGRFTISRDNSKNTLYLQMNSLRAEDTAVYYCARDRGWADAFDIWGQGTMVTVSS VL: QAGLTQPPSVSKGLRQTATLTCTGNSNNVGYQGAVWLLQYQGHPPKVLSNRNNDRPSGISERLSASRSGNTASLTITGLQPEDEGDYFCAAWDGSLRGWVFGGGTKLTVLR lower than 0.5 or not? MET

# repeat for R3-P3-C11 (antibody, human IgG1, kappa, V domains shown, human IgG1 kappa from the phage campaign) VH: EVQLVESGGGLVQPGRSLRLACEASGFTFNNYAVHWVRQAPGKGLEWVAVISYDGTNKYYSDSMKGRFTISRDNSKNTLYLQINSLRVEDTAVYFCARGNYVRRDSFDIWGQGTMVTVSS VL: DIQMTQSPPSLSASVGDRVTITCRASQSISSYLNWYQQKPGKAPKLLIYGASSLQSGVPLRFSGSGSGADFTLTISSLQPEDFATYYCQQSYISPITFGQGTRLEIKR NOT MET

# repeat for 19838-6-N03-A (antibody, IgG1, V domains shown) VH: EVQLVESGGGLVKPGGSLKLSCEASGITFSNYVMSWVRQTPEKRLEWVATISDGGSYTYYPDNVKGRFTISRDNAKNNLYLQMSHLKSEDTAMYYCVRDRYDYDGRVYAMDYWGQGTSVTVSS VL: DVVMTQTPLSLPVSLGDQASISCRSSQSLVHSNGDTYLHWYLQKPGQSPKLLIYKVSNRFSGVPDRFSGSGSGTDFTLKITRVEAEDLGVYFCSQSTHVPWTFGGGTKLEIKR MET

# repeat for R3-P3-E09 (antibody, human IgG1, kappa, V domains shown, human IgG1 kappa from the phage campaign) VH: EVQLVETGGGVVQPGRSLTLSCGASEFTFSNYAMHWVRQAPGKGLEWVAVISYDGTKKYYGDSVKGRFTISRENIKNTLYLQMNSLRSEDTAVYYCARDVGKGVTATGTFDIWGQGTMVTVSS VL: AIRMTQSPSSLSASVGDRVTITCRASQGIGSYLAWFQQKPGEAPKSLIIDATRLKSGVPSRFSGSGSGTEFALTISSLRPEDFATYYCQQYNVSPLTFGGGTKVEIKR MET

# repeat for R4M-P3-A12 (antibody, human IgG1, kappa, V domains shown) VH: EVQLVESGGGVVQPGGSLRLSCAASGFTFSDHYMSWIRQAPGKGLEWVSYLSGSGTSIYYADSVKGRFTISRDNAKKSLYLQMNSLRAEDTAVYYCARVGPAAGNAFDIWGQGTMVTVSS VL: QSVLTQPPSASGTPGQRVTISCSGSSSNIGSNYVYWYQQLPGTAPKLLIYRNNQRPSGVPDRFSGSKSGTSASLAITGLQAEDEADYYCQSYDSSLSGVVFGGGTKLTVLR MET
